Property: MIC; scope: individual compounds
Test system: Candida albicans
EXPERIMENT_NOTES: Antimicrobial activity against Candida albicans NBRC1060 after 3-5 days by broth dilution method
CONDITION_LABEL: NBRC1060, 3-5 days
Only the number, expressed in µg/mL, is required.

SAMPLE_SMILES | SYSTEM | MIC / µg/mL
C[C@@H]1[C@H](O)[C@@H](C)/C=C/C=C/C=C/C=C/C=C/C=C/C=C/[C@H](O[C@@H]2O[C@H](C)[C@@H](O)[C@H](N)[C@@H]2O)C[C@@H]2O[C@](O)(C[C@@H](O)C[C@@H](O)[C@H](O)CC[C@@H](O)C[C@@H](O)CC(=O)O[C@H]1C)C[C@H](O)[C@H]2C(=O)O | Candida albicans | 1.56

MIC reading for `C[C@H](O)c1cc2c(o1)C(=O)c1cccc(O)c1C2=O` : 25

MIC reading for `C[C@@H](O)c1cc2c(o1)C(=O)c1cccc(O)c1C2=O` : 25

MIC reading for `C[C@H](O)c1cc2c(o1)C(=O)c1c(O)cccc1C2=O` : 25

---

Tested on: Bacillus mycoides
EXPERIMENT_NOTES: Antimicrobial activity against Bacillus mycoides ATCC 11778 after 24 hrs by broth dilution method
Format: functional
CONDITION_LABEL: ATCC 11778, 24 h
MEASURE: MIC (µg/mL)
Only the number, expressed in µg/mL, is required.

// known answers, use as guide
SAMPLE_SMILES | UNIT_TEXT | DATA_VALUE
C[C@@H](O)c1cc2c(o1)C(=O)c1cccc(O)c1C2=O | µg/mL | 0.78
C[C@@H](O)c1cc2c(o1)C(=O)c1c(O)cccc1C2=O | µg/mL | 1.56
C[C@H](O)c1cc2c(o1)C(=O)c1c(O)cccc1C2=O | µg/mL | 1.56

Entry `C[C@H](O)c1cc2c(o1)C(=O)c1cccc(O)c1C2=O` : MIC on Bacillus mycoides = 0.78

Entry `CC(=O)c1cc2c(o1)C(=O)c1cccc(O)c1C2=O` : MIC on Bacillus mycoides = 0.78

Entry `CC1(C)S[C@@H]2[C@H](NC(=O)Cc3ccccc3)C(=O)N2[C@H]1C(=O)O` : MIC on Bacillus mycoides = 1.56

---

Property: EA induction relative to TPA control; scope: individual compounds
Test system: Raji
EXPERIMENT_NOTES: Inhibition of 12-O-tetradecanoylphorbol-13-acetate-induced EBV-early antigen activation in human Raji cells assessed as EA induction at 1000 molar ratio after 48 hrs by immunofluorescence technique relative to 12-O-tetradecanoylphorbol-13-acetate
Format: cell-based
CONDITION_LABEL: human gammaherpesvirus 4
Only the number, expressed in %, is required.

// known answers, use as guide
COMPOUND | SYSTEM | DATA_VALUE
CC(O)c1cc2c(o1)C(=O)c1cccc(O)c1C2=O (racemic) | Raji | 0
C[C@@H](O)c1cc2c(o1)C(=O)c1cccc(O)c1C2=O | Raji | 0
CC(=O)c1cc2c(o1)C(=O)c1c(O)cccc1C2=O | Raji | 0
CC(=O)c1cc2c(o1)C(=O)c1cccc(O)c1C2=O | Raji | 0
CC(O)c1cc2c(o1)C(=O)c1c(O)cccc1C2=O (racemic) | Raji | 8.9
CC1(C)CCC2=C(O1)c1ccccc1C(=O)C2=O [LAPACHONE] | Raji | 4.7
C[C@H](O)c1cc2c(o1)C(=O)c1c(O)cccc1C2=O | Raji | 7.4
C[C@@H](O)c1cc2c(o1)C(=O)c1c(O)cccc1C2=O | Raji | 4.2
COc1cc(/C=C/C(=O)CC(=O)/C=C/c2ccc(O)c(OC)c2)ccc1O [CURCUMIN] | Raji | 8.9
CC(C)=CCC1=C(O)C(=O)c2ccccc2C1=O [LAPACHOL] | Raji | 8.9

Kindly review the next compound as well.
EA induction relative to TPA control reading for `C[C@H](O)c1cc2c(o1)C(=O)c1cccc(O)c1C2=O` : 0
